Target: T1, Soluble IGF-1R (R&D Systems, Cat. # 391-GR/CF); recombinant human IGF-1R (human, UniProt P08069 31-935)
T1 construct: extracellular domain; Eu3+-labelled in the TR-FRET assays; also called sIGF-1R; rhIGF-1R
Experiment: phage ELISA vs milk
No end group written: not given here.
readout.label: Ratio over Background (fold)
Answers are plain numbers, in fold.

Solved entries:
{"columns": ["binder", "Ratio over Background (fold)"],
 "data": [
  ["LGYQEPFQQNFYDWFVRQVSGAENAG [E2CA-3-E8-IGFR]", 6.3],
  ["IWATGDFYRLLSQLVMGRVGT [20E2B-2-88-IGFR]", 5.7],
  ["SGAKVIVVTGDSGDPFYHKLSELLQGS [B6Eα-2-C10-IR]", 5.8],
  ["QSPVGSSHEDFYDWFFRQVAQSGAHQ [N2CA-3-D6-IGFR]", 9],
  ["PGTDLGFYQALRCVVIQGACD (not fully specified (bridges); cysteine pairing not given here) [20E2B-2-22-IGFR]", 4.9]
]}

We next turn to a different binder, shown below.
Per the record, GIISQSCPESFYDWFAGQVSDPWWCW [H2CA-4-G9-IGFR] has Ratio over Background of 9.5
